Listed compounds paired with reported IC50
ASSAY SYSTEM: UniProtKB P10721
ASSAY COMMENT: Proliferation assay (CellTiter-Blue) on BaF3 Kit WT cell line
CONDITION CONTEXT: BaF3 Kit WT cell line (murine Ba/F3 expressing Human Kit WT, with murine SCF), 48 hours

>>> reported("Cc1cc2nc(-c3ccc(C(F)(F)F)cc3)[nH]c2cc1Nc1nc(-c2cncnc2)cs1 [Compound 067]")
"1000 to 10000 nM"
>>> reported("Cc1cc2nc(-c3cccc(C(F)(F)F)c3)n(C)c2cc1Nc1nc(-c2cccnc2)cs1 [Compound 116]")
"1000 to 10000 nM"
>>> reported("C#Cc1cccc(-c2nc3cc(Nc4nc(-c5ccc(C#N)cc5)cs4)c(C)cc3[nH]2)c1 [Compound 141]")
"≤ 1000 nM"
>>> reported("Cc1cc2[nH]c(-c3cccc(F)c3)nc2cc1Nc1nc(-c2cccnc2)cs1 [Compound 123]")
"1000 to 10000 nM"
>>> reported("Cc1cc2c(cc1Nc1nc(-c3ccncc3)cs1)nc(-c1cccc(C(F)F)c1)n2C [Compound 081]")
"≤ 1000 nM"

For CCn1c(-c2cccc(OC(F)(F)F)c2)nc2cc(Nc3nc(-c4cccnc4)cs3)c(C)cc21 [Compound 115] , what is its reported IC50?
≤ 1000 nM

For Cc1cc2nc(-c3cccc(OC(F)(F)F)c3)[nH]c2cc1Nc1nc(-c2cncnc2)cs1 [Compound 063] , what is its reported IC50?
1000 to 10000 nM

For Cc1cc2nc(-c3cccc(C(F)F)c3)[nH]c2cc1Nc1nc(-c2cncnc2)cs1 [Compound 061] , what is its reported IC50?
≤ 1000 nM

* * *

ASSAY SYSTEM: c-kit WT (Homo sapiens (Human))
ASSAY COMMENT: Proliferation assay (CellTiter-Blue) on BaF3 Kit WT cell line
CONDITION CONTEXT: BaF3 Kit WT cell line (murine Ba/F3 expressing Human Kit WT, with murine SCF), 48 hours
pIC50: −log10 of the molar value.
READOUT: pIC50

Example entries and their recorded answers appear below.
>>> reported("Cc1cccc(-c2nc3cc(Nc4nc(-c5cccc(C#N)c5)cs4)c(C)cc3[nH]2)c1 [Compound 129]")
"≥ 6.00"
>>> reported("COc1ccc(-c2nc3cc(C)c(Nc4nc(-c5cccnc5)cs4)cc3[nH]2)cc1 [Compound 002]")
"5.00 to 6.00"
>>> reported("Cc1cc2nc(-c3cccc(C(F)(F)F)c3)[nH]c2cc1Nc1nc(-c2cncnc2)cs1 [Compound 062]")
"≥ 6.00"
>>> reported("Cc1cc2nc(-c3cccc(C(F)(F)F)c3)[nH]c2cc1Nc1ncc(-c2ccncc2)o1 [Compound 053]")
"5.00 to 6.00"
>>> reported("Cc1cc2[nH]c(-c3cccc(C(F)F)c3)nc2cc1Nc1nc(-c2ccnc(Cl)c2)cs1 [Compound 108]")
"≥ 6.00"

# evaluate next
Find the measured pIC50: item Cc1cc2nc(-c3ccc(F)cc3)[nH]c2cc1Nc1nc(-c2cccnc2)cs1 [Compound 060] , target or system c-kit WT (Homo sapiens (Human)).
5.00 to 6.00

* * *

ASSAY SYSTEM: c-kit WT (Homo sapiens (Human), UniProt P10721)
Sequence (P10721 26-976): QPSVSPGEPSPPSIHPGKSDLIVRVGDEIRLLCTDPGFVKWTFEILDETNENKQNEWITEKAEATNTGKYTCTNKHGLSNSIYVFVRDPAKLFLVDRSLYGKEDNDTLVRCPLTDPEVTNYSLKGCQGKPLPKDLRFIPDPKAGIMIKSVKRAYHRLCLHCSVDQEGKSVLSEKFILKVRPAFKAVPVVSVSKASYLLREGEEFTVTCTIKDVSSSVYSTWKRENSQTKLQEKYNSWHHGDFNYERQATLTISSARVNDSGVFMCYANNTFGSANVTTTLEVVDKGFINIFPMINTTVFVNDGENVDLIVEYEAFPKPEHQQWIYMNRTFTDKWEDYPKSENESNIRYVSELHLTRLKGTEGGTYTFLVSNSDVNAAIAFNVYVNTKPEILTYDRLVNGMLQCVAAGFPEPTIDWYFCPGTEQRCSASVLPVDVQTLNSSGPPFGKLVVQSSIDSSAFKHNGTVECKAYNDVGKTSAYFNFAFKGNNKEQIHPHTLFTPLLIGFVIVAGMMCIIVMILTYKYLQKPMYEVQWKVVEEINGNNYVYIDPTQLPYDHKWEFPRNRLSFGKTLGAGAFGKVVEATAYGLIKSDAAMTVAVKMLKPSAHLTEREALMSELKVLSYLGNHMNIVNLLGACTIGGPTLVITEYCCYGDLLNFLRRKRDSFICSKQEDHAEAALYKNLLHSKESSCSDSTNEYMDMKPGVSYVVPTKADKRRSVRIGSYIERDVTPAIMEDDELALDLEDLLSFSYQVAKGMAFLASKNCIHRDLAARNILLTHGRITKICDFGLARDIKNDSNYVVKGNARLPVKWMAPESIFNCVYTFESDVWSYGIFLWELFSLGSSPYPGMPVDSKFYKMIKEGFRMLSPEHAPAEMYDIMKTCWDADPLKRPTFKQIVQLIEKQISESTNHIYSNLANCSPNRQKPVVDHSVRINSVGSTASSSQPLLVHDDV
ASSAY COMMENT: Proliferation assay (CellTiter-Blue) on BaF3 Kit WT cell line
CONDITION CONTEXT: BaF3 Kit WT cell line (murine Ba/F3 expressing Human Kit WT, with murine SCF), 48 hours
READOUT: IC50

>>> reported("COc1cccc(-c2nc3cc(Nc4nc(-c5ccc(C#N)cc5)cs4)c(C)cc3[nH]2)c1 [Compound 128]")
"≤ 1000 nM"

For Cc1cc2nc(-c3cc(CN4CCCC4)cc(C(F)(F)F)c3)[nH]c2cc1Nc1nc(-c2cccnc2)cs1 [Compound 023] , what is its reported IC50?
1000 to 10000 nM

For Cc1cc2nc(-c3cccc(C(F)(F)F)c3)[nH]c2cc1Nc1nc(-c2cccnc2)cs1 [Compound 005] , what is its reported IC50?
≤ 1000 nM

For Cc1cc2nc(-c3cccc(OC(F)(F)F)c3)[nH]c2cc1Nc1nc(-c2ccc(C(N)=O)cc2)cs1 [Compound 073] , what is its reported IC50?
≤ 1000 nM

For Cc1cccc(-c2nc3cc(C)c(Nc4nc(-c5ccc(C#N)cc5)cs4)cc3[nH]2)c1 [Compound 074] , what is its reported IC50?
≤ 1000 nM

For CCn1c(-c2cccc(C)c2)nc2cc(Nc3nc(-c4ccncc4)cs3)c(C)cc21 [Compound 104] , what is its reported IC50?
≤ 1000 nM

* * *

ASSAY SYSTEM: c-kit WT (Homo sapiens (Human))
ASSAY COMMENT: Proliferation assay (CellTiter-Blue) on BaF3 Kit WT cell line
CONDITION CONTEXT: BaF3 Kit WT cell line (murine Ba/F3 expressing Human Kit WT, with murine SCF), 48 hours
Listed compounds paired with reported IC50

Example entries and their recorded answers appear below.
>>> reported("Cc1cccc(-c2nc3cc(C)c(Nc4nccc(-c5cccnc5)n4)cc3[nH]2)c1")
"1 to 10 µM"
>>> reported("Cc1cc2nc(-c3ccc(CN4CCN(C)CC4)cc3)[nH]c2cc1Nc1nc(-c2cccnc2)cs1")
"≤ 1 µM"
>>> reported("C#Cc1cccc(-c2nc3cc(Nc4nc(-c5cccnc5)cs4)c(C)cc3n2C)c1")
"≤ 1 µM"
>>> reported("Cc1cc2nc(-c3ccc(CN4CCN(C)CC4)cc3)[nH]c2cc1Nc1nc(-c2cncnc2)cs1")
"1 to 10 µM"
>>> reported("Cc1cc2[nH]c(-c3cccc(C(F)(F)F)c3)nc2cc1Nc1nc(-c2cccc(C#N)c2)cs1")
"≤ 1 µM"

For Cc1cc2nc(-c3cc(F)cc(C(F)(F)F)c3)[nH]c2cc1Nc1nc(-c2cccnc2)cs1 , what is its reported IC50?
≤ 1 µM

For Cc1cc2nc(-c3cccc(OC(F)(F)F)c3)[nH]c2cc1Nc1nc(-c2cccnc2)cs1 , what is its reported IC50?
≤ 1 µM

For Cc1cc2[nH]c(-c3cccc(S(C)(=O)=O)c3)nc2cc1Nc1nc(-c2ccc(C#N)cc2)cs1 , what is its reported IC50?
≤ 1 µM

* * *

ASSAY SYSTEM: c-kit WT (Homo sapiens (Human), UniProt P10721)
ASSAY COMMENT: Proliferation assay (CellTiter-Blue) on BaF3 Kit WT cell line
CONDITION CONTEXT: BaF3 Kit WT cell line (murine Ba/F3 expressing Human Kit WT, with murine SCF), 48 hours
Listed molecules paired with reported IC50

Example entries and their recorded answers appear below.
>>> reported("Cc1cc2nc(CN3CCOCC3)[nH]c2cc1Nc1nc(-c2cccnc2)cs1")
"1000 to 10000 nM"
>>> reported("Cc1cc2nc(-c3ccc(C(F)(F)F)cc3)[nH]c2cc1Nc1nc(-c2ccncc2)cs1")
"≤ 1000 nM"

For Cc1cc2nc(-c3cccnc3)[nH]c2cc1Nc1nccc(-c2cccnc2)n1 , what is its reported IC50?
1000 to 10000 nM

For Cc1cc2nc(-c3cccc(OC(F)(F)F)c3)[nH]c2cc1Nc1nc(-c2ccncc2)cs1 , what is its reported IC50?
≤ 1000 nM

For FC(F)(F)Oc1cccc(-c2nc3cc(Nc4nc(-c5cccnc5)cs4)ccc3[nH]2)c1 , what is its reported IC50?
≤ 1000 nM

* * *

ASSAY SYSTEM: c-kit WT (Homo sapiens (Human))
ASSAY COMMENT: Proliferation assay (CellTiter-Blue) on BaF3 Kit WT cell line
CONDITION CONTEXT: BaF3 Kit WT cell line (murine Ba/F3 expressing Human Kit WT, with murine SCF), 48 hours
pIC50: −log10 of the molar value.
READOUT: pIC50

Example entries and their recorded answers appear below.
>>> reported("Cc1cc2nc(Cc3cccc(C(F)(F)F)c3)[nH]c2cc1Nc1ncc(-c2ccncc2)o1")
"5.00 to 6.00"
>>> reported("Cn1c(-c2cccc(C(F)F)c2)nc2cc(Nc3nc(-c4cccnc4)cs3)ccc21")
"5.00 to 6.00"
>>> reported("Cn1c(-c2cccc(C(F)(F)F)c2)nc2cc(Nc3nc(-c4cccnc4)cs3)ccc21")
"5.00 to 6.00"
>>> reported("Cc1cc2nc(-c3ccc(CN4CCN(C)CC4)cc3)[nH]c2cc1Nc1nccc(-c2cccnc2)n1")
"5.00 to 6.00"
>>> reported("Cc1cc2nc(-c3ccc(C)c(C(F)(F)F)c3)[nH]c2cc1Nc1nc(-c2cccnc2)cs1")
"≥ 6.00"

For Cc1cc2nc(-c3ccc(C)c(C(F)(F)F)c3)[nH]c2cc1Nc1nccc(-c2cccnc2)n1 , what is its reported pIC50?
≥ 6.00

For Cc1cc2nc(-c3cccc(C(F)F)c3)[nH]c2cc1Nc1nc(-c2cccc(C#N)c2)cs1 , what is its reported pIC50?
≥ 6.00

For Cc1cc2c(cc1Nc1nc(-c3ccncc3)cs1)nc(-c1cccc(C(F)(F)F)c1)n2C , what is its reported pIC50?
≥ 6.00

For Cc1cc2nc(-c3cccc(F)c3)[nH]c2cc1Nc1nccc(-c2cccnc2)n1 , what is its reported pIC50?
5.00 to 6.00
